B1: GFP aptamer (parent)
chain: GCUUCUGGACUGCGAUGGGAGCACGAAACGUCGUGGCGCAAUUGGGUGGGGAAAGUCCUUAAAAGAGGGCCACCACAGAAGC

variants of: B1; experiment: HiTS-RAP; settings: with EGFP
measured attribute: pKd
Answers are plain numbers, as −log10 of the molar value.

// solved cases for pKd follow
mutant label: C24U
pKd: 8.32
--
mutant label: G44U
pKd: 7.03
--
mutant label: A75C
pKd: 7.58

Batch request: pKd for each of the following variants.
1. G14U
2. C10U C37U
3. A41G U43C
4. C58G
5. A62C
6. C74A
7. U4A
8. A27G U34C

1. 8.31
2. 7.84
3. 7.90
4. 7.54
5. 8.40
6. 7.54
7. 8.38
8. 8.04

Consider the following items and state reported pKd for each.
1. G38A
2. A27G A28G
3. A28G A79G
4. A20G A62G
5. U11C A40G

[7.55, 8.35, 8.46, 7.88, 8.33]

Hi team, please reply with pKd for each item in this list.
1. G78A
2. C29U

1. 7.88
2. 8.35
